target: Cytochrome P450 1A2 (Homo sapiens) (UniProt P05177); assay: Cytochrome P450 Family 1 Subfamily A Member 2 (CYP1A2) small molecule antagonists: luciferase reporter qHTS assay (AID 1671199); details: P450-Glo CYP1A2 enzyme, luciferin luminescence, 1 h; series mostly up to 53 µM; further: nearly all actives have a fitted effect of over 50% in size; further: potency means the concentration at half of the fitted maximal effect
Sequence (P05177 whole entry, looked up): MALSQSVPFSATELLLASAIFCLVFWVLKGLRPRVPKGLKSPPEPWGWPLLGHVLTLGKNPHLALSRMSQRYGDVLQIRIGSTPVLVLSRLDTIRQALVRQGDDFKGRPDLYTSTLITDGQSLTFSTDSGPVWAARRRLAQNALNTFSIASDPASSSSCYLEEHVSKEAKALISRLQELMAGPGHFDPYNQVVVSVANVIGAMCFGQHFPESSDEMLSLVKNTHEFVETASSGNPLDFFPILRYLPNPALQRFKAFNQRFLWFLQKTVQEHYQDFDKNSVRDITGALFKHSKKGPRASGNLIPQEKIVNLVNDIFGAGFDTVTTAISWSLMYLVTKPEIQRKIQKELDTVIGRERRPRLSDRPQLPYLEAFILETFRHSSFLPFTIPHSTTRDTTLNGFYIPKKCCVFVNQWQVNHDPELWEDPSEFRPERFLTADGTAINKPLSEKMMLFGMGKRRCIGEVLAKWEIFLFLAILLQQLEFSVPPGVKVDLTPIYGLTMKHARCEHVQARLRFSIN
Records with an inconclusive call do not appear. The source made the active and inactive calls. The call rests on the fitted dose curve; in most records, active means well fitted inhibition curve with a large enough effect in the repeat runs; inconclusive means weak or mixed curves; inactive means no such curve, though single readings can be large or run the other way.
READOUT TYPE: Potency

Use the examples below as a reference point.
[[record]]
molecule = "O=Cc1ccc(F)c(Br)c1"
readout_type = "Potency"
test_value = "35.6 µM (active)"

[[record]]
molecule = "OCC(CBr)(CBr)CBr"
readout_type = "Potency"
test_value = "inactive"

[[record]]
molecule = "Cc1nc(-c2ccccn2)ncc1C(=O)Nn1cc(C)c2cc(F)ccc21"
readout_type = "Potency"
test_value = "31.7 µM (active)"

[[record]]
molecule = "N#CSCC(=O)O"
readout_type = "Potency"
test_value = "inactive"

[[record]]
molecule = "O=C1CCCc2ccccc21"
readout_type = "Potency"
test_value = "36 µM (active)"


[ask] Please give the documented Potency of FC(F)(F)C(F)(F)C(F)(F)C(F)(F)C(F)(F)C(F)(F)C(F)(F)C(F)(F)Br
[reply] inactive

[ask] Specify reported Potency for the molecule shown: O=S(=O)(O)C(F)(F)F
[reply] inactive

[ask] Quickly give me recorded Potency for CC1(O)CSC(C)(O)CS1 (configuration not stated)
[reply] 39.9 µM (active)

[ask] Give the value of Potency reported for the following: CCOC(=O)CS
[reply] 65.1 µM (active)

[ask] Name the recorded Potency of the item Oc1ccccc1F in your answer.
[reply] 35.5 µM (active)

[ask] Identify Potency associated with the molecule CN(C)C(=O)NC1(c2ccccc2)CCN(CCC[C@]2(c3ccc(Cl)c(Cl)c3)CCCN(C(=O)c3ccccc3)C2)CC1
[reply] inactive
